# reported IC50; entries follow
# target.or.system: IDO1 in Hela cancer cells (Homo sapiens)
# Construct: endogenous in cells
# Sequence (P14902 whole entry): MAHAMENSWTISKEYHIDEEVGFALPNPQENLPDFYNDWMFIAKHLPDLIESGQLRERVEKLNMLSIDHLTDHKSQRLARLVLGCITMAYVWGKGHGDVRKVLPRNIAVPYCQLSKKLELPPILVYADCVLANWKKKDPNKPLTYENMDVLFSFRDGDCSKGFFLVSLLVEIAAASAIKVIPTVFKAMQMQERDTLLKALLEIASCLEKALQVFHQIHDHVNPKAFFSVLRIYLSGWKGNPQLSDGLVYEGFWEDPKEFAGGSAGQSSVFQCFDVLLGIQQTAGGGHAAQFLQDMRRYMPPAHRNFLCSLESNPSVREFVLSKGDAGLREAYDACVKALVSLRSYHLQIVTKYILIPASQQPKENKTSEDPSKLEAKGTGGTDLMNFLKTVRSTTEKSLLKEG
# assay.summary: IDO1 Cellular Assay (kynurenine production in IFN-γ stimulated Hela cancer cells)
# measurement.parameters: human IFN-γ 50 ng/mL, 48 hours incubation, kynurenine at 490 nm
# Method: Hela cancer cells (5×10^3 per well) with 85 μL DMEM medium containing 10% FBS were seeded in a 96-well plate and incubated at 95% humidity and 5% CO2 at 37° C. for 24 hours. human IFN-γ (10 μL, 50 ng/mL final concentration) and 5 μL serial dilutions of the test compounds were added into each well. […] The yellow color derived from kynurenine was measured at 490 nm using a microplate reader. […] Data was analyzed by GraphPad Prism 5 and the IC50 values were obtained by non-linear regression. […]

>  <compound>
O=C(Cc1ccc(Cl)cc1)N1C[C@@H]2C[C@@](O)(c3cc(Cl)cc4[nH]ncc34)C[C@@H]2C1 [Example 175]

>  <IC50>
1000 to 5000 nM

$$$$
>  <compound>
CS(=O)(=O)N1C[C@H]2CC(C(O)c3cc(Cl)cc4[nH]ncc34)C[C@H]2C1 (stereo partly drawn) [Example 105]

>  <IC50>
> 5000 nM

$$$$
>  <compound>
CC(=O)N1C[C@@H]2C[C@@](O)(c3c(Cl)ccc4cncn34)C[C@@H]2C1 [Example 7]

>  <IC50>
> 5000 nM

$$$$
>  <compound>
CC1(C)[C@H]2CN(c3cc(C(F)(F)F)cn4cncc34)C[C@H]2CN1S(C)(=O)=O (racemic) [Example 46]

>  <IC50>
> 5000 nM

$$$$
>  <compound>
O=C(N[C@H]1C[C@@H]2C[C@@](O)(c3cc(Cl)cc4[nH]ncc34)C[C@@H]2C1)c1cccc(Cl)c1 [Example 166]

>  <IC50>
500 to 1000 nM

$$$$

Quote IDO1 in Hela cancer cells (Homo sapiens) IC50 for entry C#Cc1cccc(C(=O)N[C@H]2[C@@H]3C[C@@](O)(c4cc(Cl)cc5[nH]ncc45)C[C@@H]32)c1 [Example 174] .
≤ 500 nM

Quote IDO1 in Hela cancer cells (Homo sapiens) IC50 for entry O=C(N[C@H]1[C@@H]2C[C@@](O)(c3cc(Cl)cc4[nH]ncc34)C[C@@H]21)c1cccnc1 [Example 148] .
≤ 500 nM

Quote IDO1 in Hela cancer cells (Homo sapiens) IC50 for entry O=S(=O)(N[C@H]1[C@@H]2C[C@@](O)(c3cc(Cl)cc4cn[nH]c34)C[C@@H]21)C1CC1 [Example 110] .
1000 to 5000 nM

Quote IDO1 in Hela cancer cells (Homo sapiens) IC50 for entry O=C(N[C@H]1[C@@H]2C[C@@](O)(c3cc(Cl)cc4[nH]ncc34)C[C@@H]21)c1ccc(F)c(Cl)c1 [Example 150] .
≤ 500 nM

Quote IDO1 in Hela cancer cells (Homo sapiens) IC50 for entry O=C(Cc1ccc(Cl)cc1)N[C@H]1[C@@H]2C[C@@](O)(c3cc(Cl)cc4[nH]ncc34)C[C@@H]21 [Example 149] .
≤ 500 nM

Quote IDO1 in Hela cancer cells (Homo sapiens) IC50 for entry CC(=O)Nc1cccc(C(=O)N[C@H]2[C@@H]3C[C@@](O)(c4cc(Cl)cc5[nH]ncc45)C[C@@H]32)c1 [Example 151] .
1000 to 5000 nM

Quote IDO1 in Hela cancer cells (Homo sapiens) IC50 for entry N#Cc1cncc(C(=O)N[C@H]2[C@@H]3C[C@@](O)(c4cc(Cl)cc5[nH]ncc45)C[C@@H]32)c1 [Example 181] .
≤ 500 nM

Quote IDO1 in Hela cancer cells (Homo sapiens) IC50 for entry O=S(=O)(c1ccccc1)N1C[C@@H]2C[C@@](O)(c3cc(Cl)cc4[nH]ncc34)C[C@@H]2C1 [Example 35] .
> 5000 nM

Quote IDO1 in Hela cancer cells (Homo sapiens) IC50 for entry O=C(N[C@H]1[C@@H]2C[C@@](O)(c3cc(Cl)cc4[nH]ncc34)C[C@@H]21)c1cncc(Br)c1 [Example 170] .
≤ 500 nM

Quote IDO1 in Hela cancer cells (Homo sapiens) IC50 for entry O=C(c1nc2cc(Cl)ccc2[nH]1)N1C[C@@H]2C[C@@](O)(c3cc(Cl)cc4[nH]ncc34)C[C@@H]2C1 [Example 134] .
1000 to 5000 nM
